Would you mind telling me the reported Percent Effect of each entry?
biological target: Shiga toxin 2 (Escherichia coli O157:H7) (UniProt P09385+P09386); assay: E. coli 0.157:H7 Shiga Toxin SOP - stx2 screening assay; type: functional; design: scale not given: direction of the effect not stated beside the values; settings: 30 µM

Field: example entries. Status: answers known.
Cc1noc([C@@H]2C[C@H]3CN(Cc4cc(C)on4)C[C@H]3O2)n1 :: -9.84%
Cc1noc(C2CCN(C(=O)CCNS(C)(=O)=O)CC2)n1 :: -13.5%
COCCCN1CCc2cncnc2C1 :: -35.2%
CC(C)C(C(=O)N1CCN(c2ccncc2)CC1)n1cncn1 (stereo not drawn) :: -47.8%
COc1cc(C(=O)N2CCCS2(=O)=O)ccc1C :: -10.8%

Give Percent Effect for each of the items listed below.
1. CCn1c(C2CCCN(Cc3nccn3CCOC)C2)nn(C)c1=O (stereo not drawn)
2. CC(Cn1cccn1)NC(=O)NCCc1cnn(C)c1 (stereo not drawn)
3. c1ccc(-c2nc(CN3CCCC(Cn4cncn4)C3)co2)cc1 (stereo not drawn)
4. O=C(Cc1n[nH]c2ccccc12)N1CCC(Nc2cccnn2)CC1
5. CC(C)(O)CN1CCN(C(=O)c2cccnc2O)CC1

RESULT:
["5.34%", "-3.5%", "-67.5%", "-16.9%", "9.08%"]

Lab note: each molecule below needs its Percent Effect filled in.
1. O=C(COCc1ccccc1Cl)N1CCCC(n2cccn2)C1 (stereo not drawn)
2. O=C(CCC1CCCC1)N1CCC(c2ncc3c(n2)CCNC3)CC1
3. Cc1nn(C)c(C)c1C1CCCN1C(=O)c1cc[nH]n1 (stereo not drawn)

RESULT:
1: 20%; 2: -54.5%; 3: 11.4%

FYI, the data here is from ChEMBL document CHEMBL3988442.
